B1: Azoarcus group I ribozyme (parent)
chain: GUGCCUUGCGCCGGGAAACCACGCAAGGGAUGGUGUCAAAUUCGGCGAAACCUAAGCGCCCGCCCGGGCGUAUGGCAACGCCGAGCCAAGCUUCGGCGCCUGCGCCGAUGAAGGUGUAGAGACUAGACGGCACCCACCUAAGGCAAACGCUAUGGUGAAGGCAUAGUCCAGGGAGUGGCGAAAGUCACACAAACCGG

- Variants of: B1
- experiment.notes: reverse-splicing fitness (ratio to wild type); higher = more active; in vitro selection; Mg2+ level not given
assay.endpoint: reverse-splicing fitness
Keep the answer to the number alone.

Input line: What measured reverse-splicing fitness goes with C82U A111U A145U C150U C169U U176G ?
Output line: 0.00582

Input line: Endpoint output: reverse-splicing fitness of C82G A111G A145G C169U . Value?
Output line: 0.0129

Input line: Given the entry C82U A111G C150A C169A , report its measured reverse-splicing fitness.
Output line: 0.00969

Values compiled from the RNAGym collection of RNA variant scans (doi:10.1093/molbev/msab373).
